Would you mind telling me the reported composite Z-score of each entry?
test-details: small-molecule microarray binders of probe aXIP, primary screen, biochemical, NeuroSMM set, 635/667 nm fluorescence (AID 1119);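 further: probe is the protein aXip251-270 applied at 1 µg/mL to compound-printed slides; binding of probe to printed compounds measured as 667 nm fluorescence plus signal to noise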
details: higher = more signal, called active from +8 up or from −8 down
Just the number, please.

Consider [N-]=[N+]=NCc1ccccc1C[C@]1(C(=O)NCc2ccccc2)N=C(c2ccc(OCCCO)cc2)O[C@H]1c1ccccc1N=[N+]=[N-] . Its measured composite Z-score is 0.187

Recorded result, C[C@@H]1C=CCC(=O)OC[C@H](C)C(=O)N2CCC[C@H]2C(=O)OC1 , composite Z-score: 0.608

Lab book: composite Z-score of CCN1C(=O)[C@H]2[C@H]3[C@H](O)[C@H](O)CC(=NO[C@@H]4O[C@H](CO)[C@@H](O)[C@H](O)[C@H]4O)[C@@H]3CC[C@H]2C1=O noted as 0.103

// composite Z-score lookup, compound = CC(C)=NOCc1cccc(-c2cc(-c3ccccc3)no2)c1 , result: 0.123

Sure, the documented composite Z-score for Cc1ccc(S[C@]2(C(=O)O)CC(=O)N(Cc3ccccc3)[C@@H]2c2ccc(CO)cc2I)cc1 is -0.523

Per the record, COC(=O)[C@@H]1CC[C@H](C)[C@@H](c2ccc(C)cc2)N1C(=O)c1ccc(C=NOC[C@@H](O)COCc2ccco2)cc1 has composite Z-score of -0.93

Looking up COc1ccc(COC(=O)NN=C2C[C@@H](O)[C@@H](O)[C@@H]3[C@@H]4C(=O)N(c5ccc(F)cc5F)C(=O)[C@@H]4CC[C@@H]23)cc1 , I found its composite Z-score recorded as -0.0662

So for O=C1CCCC2OC12C(O)CCc1ccccc1 (stereo not drawn) , the logged composite Z-score turned out to be 0.319
